List of MIC80 values.
- System: Aspergillus flavus
- experiment_description: Antifungal activity against Aspergillus flavus ATCC204304 assessed as growth inhibition incubated at 35 degC for 24 hrs by micro broth dilution method
- Assay type: functional
- details: ATCC204304, 24 h
All answers are understood in µg/mL, so give the number only.

Solved cases below.
INSERT INTO measurements (molecule, value_observed) VALUES
  ('Cn1ccnc1SCC(O)CNC1CCN(c2c(F)cc3c(=O)c(C(=O)O)cn(C4CC4)c3c2Cl)C1 (centres undefined)', 32),
  ('CCn1cc(C(=O)O)c(=O)c2cc(F)c(N3CCN(CC(O)CSc4nccn4C)CC3)cc21 (centres undefined)', 256),
  ('O=C(O)c1cn(C2CC2)c2c(Cl)c(N3CCC(NCC(O)CSc4ncn(Cc5ccc(Cl)cc5Cl)n4)C3)c(F)cc2c1=O (centres undefined)', 64);

Next up:
Task: Value lookup for MIC80; key = O=C(O)c1cn(C2CC2)c2cc(N3CCN(CC(O)Cn4cnc(S)n4)CC3)c(F)cc2c1=O (centres undefined)
Output: 64

###

- System: Aspergillus flavus
- experiment_description: Antifungal activity against Aspergillus flavus ATCC204304 assessed as growth inhibition incubated at 35 degC for 24 hrs by micro broth dilution method
- Type: functional
- details: ATCC204304, 24 h
Threshold-based label: MIC80 under 20 µg/mL gives 1.0, MIC80 not under 20 µg/mL gives 0.0.

INSERT INTO measurements (molecule, class_assignment) VALUES
  ('CCn1cc(C(=O)O)c(=O)c2cc(F)c(N3CCN(CC(O)CSc4nnnn4C)CC3)cc21 (centres undefined)', 0.0),
  ('Cn1nnnc1SCC(O)CNC1CCN(c2c(F)cc3c(=O)c(C(=O)O)cn(C4CC4)c3c2Cl)C1 (centres undefined)', 1.0),
  ('Sc1ncn(Cc2ccc(Cl)cc2Cl)n1', 0.0),
  ('CCn1cc(C(=O)O)c(=O)c2cc(F)c(N3CCN(CC(O)Cn4cnc(S)n4)CC3)cc21 (centres undefined)', 0.0),
  ('CCn1cc(C(=O)O)c(=O)c2cc(F)c(N3CCN(CC(O)CSc4ncn(Cc5ccc(Cl)c(Cl)c5)n4)CC3)cc21 (centres undefined)', 1.0);

Task: Find out if reported MIC80 for OC(Cn1cncn1)(Cn1cncn1)c1ccc(F)cc1F is less than 20 µg/mL
Output: 0.0

Task: Find out if reported MIC80 for O=C(O)c1cn(C2CC2)c2c(Cl)c(N3CCC(NCC(O)CSc4ncn(Cc5ccc(Cl)c(Cl)c5)n4)C3)c(F)cc2c1=O (centres undefined) is less than 20 µg/mL
Output: 1.0

Task: Find out if reported MIC80 for Cn1nnnc1SCC(O)CN1CCN(c2cc3c(cc2F)c(=O)c(C(=O)O)cn3C2CC2)CC1 (centres undefined) is less than 20 µg/mL
Output: 1.0

Task: Find out if reported MIC80 for CCn1cc(C(=O)O)c(=O)c2cc(F)c(N3CCN(CC4CO4)CC3)cc21 (centres undefined) is less than 20 µg/mL
Output: 1.0

All values here come from ChEMBL document CHEMBL3739277.
